MEASURED TARGET: T1, IGF1R-Fc (extracellular domain of human IGF1R aa 1-932 fused to hinge and constant regions of human IgG1) (human, UniProt P08069 31-932)
T1 construct: range 1-932; made in house by transient transfection, purified on Protein A; also called IGF-IR-Fc; not shown: hinge and constant regions of human IgG1
METHOD: SPR Biacore, IGF1R-Fc; against I1-GS10-E5 pegylated
Give measured ΔKd (fold) for each item. Keep answers brief.
Numbers only, in fold.

I'm hoping you can list ΔKd (fold) for every binder here, please.
1. I1-GS10-E5 pegylated without the 6HIS tag (designed binder, PEG on the Cys of the C-terminal Cys tail, Whether the D-to-E change in the tail of the first monomer applies to this construct is not clear; also called I1-GS10-E5 pegylated(1)) MGVSDVPRDLEVVAATPTSLLISWSARLKVARYYRITYGETGGNSPVQEFTVPKNVYTATISGLKPGVDYTITVYAVTRFRDYQPISINYRTEIDKGSGSGSGSGSGSGSGSGSGSVSDVPRDLEVVAATPTSLLISWWAPVDRYQYYRITYGETGGNSPVQEFTVPRDVYTATISGLKPGVDYTITVYAVTDYKPHADGPHTYHESPISINYRTEIDKPCQ
2. I1-GSGCGS8-E5 pegylated (designed binder, PEG on the Cys of the GSGCGS8 linker, alternative clone of I1-GS10-E5 pegylated; tail of first monomer EIEK (D to E); also called I1-GSGCGS8-E5(3)) MGVSDVPRDLEVVAATPTSLLISWSARLKVARYYRITYGETGGNSPVQEFTVPKNVYTATISGLKPGVDYTITVYAVTRFRDYQPISINYRTEIEKGSGCGSGSGSGSGSGSGSGSVSDVPRDLEVVAATPTSLLISWWAPVDRYQYYRITYGETGGNSPVQEFTVPRDVYTATISGLKPGVDYTITVYAVTDYKPHADGPHTYHESPISINYRTEHHHHHH
3. I1(S91C)-GS10-E5 pegylated (designed binder, PEG on Cys at position 91 of I1 (position of SEQ ID NO: 1), also called I1(S91C)-GS10-E5(7)) MGVSDVPRDLEVVAATPTSLLISWSARLKVARYYRITYGETGGNSPVQEFTVPKNVYTATISGLKPGVDYTITVYAVTRFRDYQPICINYRTEIEKGSGSGSGSGSGSGSGSGSGSVSDVPRDLEVVAATPTSLLISWWAPVDRYQYYRITYGETGGNSPVQEFTVPRDVYTATISGLKPGVDYTITVYAVTDYKPHADGPHTYHESPISINYRTEHHHHHH

stdout:
1: 1.1; 2: 0.9; 3: 0.04
